target: binding partner of C5A (XPA23); test: Biacore K-off
Measurement Label: fold difference in affinity vs original (fold)
The reply should contain only the number, in fold.

Consider the reported fold difference in affinity vs original for these binders:
Binder: C5A (XPA23) VH Y32L (antibody, V domains shown) VH: EVQLLESGGGLVQPGGSLRLSCAASGFTFSKLFMFWVRQAPGKGLEWVSVISPSGGMTRYADSVKGRFTISRDNSKNTLYLQMNSLRAEDTAVYYCARVGYGGNSDYWGQGTLVTVSS VL: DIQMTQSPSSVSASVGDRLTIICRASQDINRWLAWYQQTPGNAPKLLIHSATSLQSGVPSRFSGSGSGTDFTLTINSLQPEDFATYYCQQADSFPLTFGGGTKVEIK
Measurement Label: fold difference in affinity vs original
Value Reported: 0.75
--
Binder: C5A (XPA23) VL D92Q (antibody, V domains shown) VH: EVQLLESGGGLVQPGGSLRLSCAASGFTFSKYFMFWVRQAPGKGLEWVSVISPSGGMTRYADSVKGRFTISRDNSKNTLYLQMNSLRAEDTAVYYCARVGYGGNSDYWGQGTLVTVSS VL: DIQMTQSPSSVSASVGDRLTIICRASQDINRWLAWYQQTPGNAPKLLIHSATSLQSGVPSRFSGSGSGTDFTLTINSLQPEDFATYYCQQAQSFPLTFGGGTKVEIK
Measurement Label: fold difference in affinity vs original
Value Reported: 0.56

# binder C5A (XPA23) VL R31L (antibody, V domains shown) VH: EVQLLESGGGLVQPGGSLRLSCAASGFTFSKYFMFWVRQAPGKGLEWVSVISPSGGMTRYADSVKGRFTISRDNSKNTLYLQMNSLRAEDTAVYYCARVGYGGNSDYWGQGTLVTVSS VL: DIQMTQSPSSVSASVGDRLTIICRASQDINLWLAWYQQTPGNAPKLLIHSATSLQSGVPSRFSGSGSGTDFTLTINSLQPEDFATYYCQQADSFPLTFGGGTKVEIK ; its fold difference in affinity vs original = 0.51
